Molecular target: CYP2E1 (Homo sapiens)
Construct: purchased Life Technologies, Invitrogen/Thermo Fisher Scientific; host or cells: insect cells (microsomes)
Sequence (P05181 whole entry): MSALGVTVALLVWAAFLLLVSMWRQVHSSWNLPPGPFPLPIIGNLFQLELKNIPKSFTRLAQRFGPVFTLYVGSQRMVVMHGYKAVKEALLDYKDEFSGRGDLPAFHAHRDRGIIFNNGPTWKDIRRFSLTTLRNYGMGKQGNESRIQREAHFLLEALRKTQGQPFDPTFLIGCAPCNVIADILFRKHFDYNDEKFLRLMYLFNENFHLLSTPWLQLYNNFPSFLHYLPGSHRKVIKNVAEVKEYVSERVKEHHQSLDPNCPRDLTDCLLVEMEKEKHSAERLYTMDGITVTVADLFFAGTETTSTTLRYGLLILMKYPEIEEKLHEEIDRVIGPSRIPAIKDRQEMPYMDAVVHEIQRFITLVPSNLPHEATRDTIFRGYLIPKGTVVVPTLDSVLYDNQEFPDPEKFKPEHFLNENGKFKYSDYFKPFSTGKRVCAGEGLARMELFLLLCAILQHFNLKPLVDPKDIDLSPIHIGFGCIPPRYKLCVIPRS
Assay: VIVID CYP450 screening assay, CYP2E1
Assay type: in vitro ADME
Details: probe CYP enzyme specific fluorogenic substrate (not named)
Procedure: The […]450 screening assay kit (Life Technologies, Invitrogen/Thermo Fisher Scientific) was used as an in vitro high throughput screening. […] CYP activity was evaluated by measuring the fluorescence of the fluorescent metabolite generated from each CYP enzyme specific substrate.
Property: inhibition at 30 min; scope: individual compounds

- CCN(CC)C(=O)c1ccccc1S(=O)(=O)NCC(=O)Nc1ccc(O)cc1: ~25%

Please look at the following compound next.
Exercise: Fill in the blank: the reported inhibition at 30 min of O=C(CNS(=O)(=O)c1ccccc1C(=O)NCCc1cccc(O)c1O)Nc1ccc(O)cc1 is ____.
Key: ~25%

---

Target: CYP3A4 (Homo sapiens)
Construct: purchased Life Technologies, Invitrogen/Thermo Fisher Scientific; host or cells: insect cells (microsomes)
Sequence (P08684 whole entry): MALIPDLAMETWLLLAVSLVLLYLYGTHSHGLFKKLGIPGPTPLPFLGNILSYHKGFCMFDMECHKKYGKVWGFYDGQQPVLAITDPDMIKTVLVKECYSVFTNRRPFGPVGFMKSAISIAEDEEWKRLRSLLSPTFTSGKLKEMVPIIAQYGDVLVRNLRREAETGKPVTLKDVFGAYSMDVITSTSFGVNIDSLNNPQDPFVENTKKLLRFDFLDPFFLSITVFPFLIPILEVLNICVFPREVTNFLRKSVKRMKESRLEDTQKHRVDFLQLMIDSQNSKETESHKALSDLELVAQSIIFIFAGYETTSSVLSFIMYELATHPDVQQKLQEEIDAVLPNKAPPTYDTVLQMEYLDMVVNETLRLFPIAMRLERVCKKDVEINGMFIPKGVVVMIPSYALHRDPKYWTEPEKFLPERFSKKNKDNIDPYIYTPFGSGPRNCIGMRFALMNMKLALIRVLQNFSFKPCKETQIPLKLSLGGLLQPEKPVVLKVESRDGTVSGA
Experiment: VIVID CYP450 screening assay, CYP3A4
Format: in vitro ADME
Details: probe CYP enzyme specific fluorogenic substrate (not named)
Description: The […]450 screening assay kit (Life Technologies, Invitrogen/Thermo Fisher Scientific) was used as an in vitro high throughput screening. […] CYP activity was evaluated by measuring the fluorescence of the fluorescent metabolite generated from each CYP enzyme specific substrate.
Readout Label: inhibition at 30 min

- O=C(CNS(=O)(=O)c1ccccc1C(=O)NCCc1cccc(O)c1O)Nc1ccc(O)cc1 [SRP6r]: ~25%

Exercise: Fill in the blank: the reported inhibition at 30 min of CCN(CC)C(=O)c1ccccc1S(=O)(=O)NCC(=O)Nc1ccc(O)cc1 [SRP6d] is ____.
Key: ~25%

The origin of these recorded values is patent US11458142B2.
